Cited source for all entries: patent US9040516B2

# study.target: human neutrophil elastase (Homo sapiens, UniProt P08246)
# Construct: purchased Elastin Products Company
# Sequence (P08246 30-267): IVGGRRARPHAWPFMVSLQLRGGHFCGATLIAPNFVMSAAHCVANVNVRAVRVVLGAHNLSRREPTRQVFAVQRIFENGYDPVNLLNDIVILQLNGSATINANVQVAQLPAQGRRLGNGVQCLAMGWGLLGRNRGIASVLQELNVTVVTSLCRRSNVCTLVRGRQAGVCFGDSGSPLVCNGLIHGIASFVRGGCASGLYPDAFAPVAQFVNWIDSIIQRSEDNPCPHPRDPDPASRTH
# experimental.details: Inhibitory action against human neutrophil elastase (Test Example 1; fluorogenic substrate MeOSuc-AAPV-AMC, buffer with 2M NaCl, 0.002% Brij-35)
# Format: biochemical
# measurement.context: 37° C., read-out: IC50 value (compound concentration required for 50% inhibition of human neutrophil elastase)
# Description: Assay buffer (0.4 unit/ml HNE (human neutrophil elastase, available from Elastin Products Company), 200 mM HEPES [N-(2-hydroxyethyl)piperazine-N′-(2-ethanesulfonic acid)], pH 7.5, 2M NaCl, 0.002% Brij-35) 100 μl, water for injection 40 μl and DMSO (dimethyl sulfoxide) solution of the present compound 20 μl were mixed in a 96 well plate and the mixed solutions were pre-incubated at 37° C. for five minutes. […]
Counter-ions that a name gives are not always drawn.
experimental.readout: IC50 (µM)

[P] Cc1c(-c2ccnn2-c2ccc(C#N)cc2)c(=O)n(C)c(=O)n1-c1cccc(C(F)(F)F)c1 [Example 31]
[Q] Cc1c(-c2ccnn2-c2ccc(C#N)cc2)c(=O)n(CCCCCN)c(=O)n1-c1cccc(C(F)(F)F)c1 [Example 85, hydrochloride]
[R] Cc1c(-c2ccnn2-c2ccc(C#N)cc2)c(=O)n(CCC(=O)O)c(=O)n1-c1cccc(C(F)(F)F)c1
[S] Cc1c(-c2ccnn2-c2ccc(C#N)cc2)c(=O)n(CCCCCNC(=O)OC(C)(C)C)c(=O)n1-c1cccc(C(F)(F)F)c1 [Example 30]
Exercise: Hi! Can you put these in order of IC50, lowest number first? Your task in answering is to list the labels in the requested order.
Key: Q, P, S, R
(Q: 0.0043 µM, P: 0.019 µM, S: 0.064 µM, R: 0.535 µM)
